# Study System: human Aurora A (Homo sapiens, UniProt O14965)
Where a name gives a salt, the structure may show the parent alone.
Assay Readout: IC50 (pM)

# annotated cases, reported IC50 shown
| Molecule | Unit Name | Recorded Result |
| --- | --- | --- |
| O=c1[nH]nc([C@]2(Cc3cccc(Nc4cc[nH]n4)n3)CC[C@@H](S(=O)(=O)c3cccc(Cl)c3Cl)CC2)o1 [Example 36] | pM | 430 |
| O=c1[nH]nc([C@]2(Cc3cccc(Nc4cc[nH]n4)n3)CC[C@@H]([S+]([O-])c3cccc(Cl)c3Cl)CC2)o1 (stereo partly shown) [Example 35] | pM | 310 |

[A] O=C(O)[C@]1(Cc2cccc(Nc3nccs3)n2)CC[C@@H](Oc2cccc(C(F)(F)F)c2)CC1 [Example 7, hydrochloride]
[B] Cl.O=C(O)[C@]1(Cc2cccc(Nc3nccs3)n2)CC[C@@H](Oc2cccc(C(F)(F)F)c2F)CC1 [Example 4, hydrochloride]
Asked: Lower IC50: A or B ? State the label of the item chosen.
Given back: B

====

Target chain: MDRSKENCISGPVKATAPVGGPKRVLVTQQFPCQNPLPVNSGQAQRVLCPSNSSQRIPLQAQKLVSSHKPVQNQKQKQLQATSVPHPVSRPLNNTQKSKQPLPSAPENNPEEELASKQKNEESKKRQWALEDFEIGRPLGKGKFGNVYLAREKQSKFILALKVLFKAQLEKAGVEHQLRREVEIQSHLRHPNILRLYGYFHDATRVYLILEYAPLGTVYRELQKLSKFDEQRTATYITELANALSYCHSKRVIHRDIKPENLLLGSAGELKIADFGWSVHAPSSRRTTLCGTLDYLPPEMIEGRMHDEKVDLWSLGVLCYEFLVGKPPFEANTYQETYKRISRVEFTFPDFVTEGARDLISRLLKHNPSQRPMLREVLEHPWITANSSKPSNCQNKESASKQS
pIC50: −log10 of the molar value. Structures can show the parent of a compound that is named as a salt.
Assay Readout: pIC50

# annotated cases, reported pIC50 shown
| Compound | Assay Readout | Recorded Result |
| --- | --- | --- |
| O=C(O)[C@]1(Cc2cccc(Nc3nccs3)n2)CC[C@@H](Oc2cccc(Cl)c2)CC1 [Example 5, hydrochloride] | pIC50 | 9.92 |
| Cl.O=C(O)[C@]1(Cc2cccc(Nc3nccs3)n2)CC[C@@H](Oc2cccc(Cl)c2Cl)CC1 [Example 6, hydrochloride] | pIC50 | 10.15 |

[P] O=C(O)[C@]1(Cc2cc(Br)cc(Nc3nccs3)n2)CC[C@@H](Oc2cccc(Cl)c2F)CC1 [Example 40, hydrochloride]
[Q] O=c1[nH]nc([C@]2(Cc3cccc(Nc4cc[nH]n4)n3)CC[C@@H](Oc3cccc(Cl)c3F)CC2)o1
Asked: Response body: label of entry with the larger pIC50; valid values P , Q . State the label of the item chosen.
Given back: P
(P: 10.05, Q: 9.41)

====

# Study System: GST-tagged human Aurora B(AurB)/His-tagged human INCENP complex proteins (Homo sapiens)
# Construct: GST
# Protocol Text: Aurora B inhibitory activity (Method A, IMAP assay kit)
# Condition Info: 40 μM ATP, 25° C., 45 minutes
pIC50: −log10 of the molar value. Where a name gives a salt, the structure may show the parent alone.
Assay Readout: pIC50

# annotated cases, reported pIC50 shown
| Compound | pIC50 |
| --- | --- |
| O=c1[nH]nc([C@]2(Cc3cccc(Nc4cc[nH]n4)n3)CC[C@@H](Oc3cccc(Cl)c3F)CC2)o1 | 6.31 |
| Cc1nnc([C@]2(Cc3cccc(Nc4cc[nH]n4)n3)CC[C@@H](Oc3cccc(C(F)(F)F)c3F)CC2)s1 | 6.15 |

[1] NC(=O)[C@]1(Cc2cncc(Nc3cc[nH]n3)n2)CC[C@@H](Oc2cccc(Cl)c2F)CC1
[2] O=C(O)[C@]1(Cc2cccc(Nc3cc[nH]n3)n2)CC[C@@H](Sc2cccc(Cl)c2Cl)CC1
Asked: Response body: label of entry with the larger pIC50; valid values 1 , 2 . State the label of the item chosen.
Given back: 2
(2: 6.68, 1: 6.06)

[1] O=c1[nH]nc([C@]2(Cc3cccc(Nc4cc[nH]n4)n3)CC[C@@H](Oc3cccc(C(F)(F)F)c3F)CC2)o1
[2] Cc1cc(Nc2cc[nH]n2)nc(C[C@]2(c3n[nH]c(=O)o3)CC[C@H](Oc3cccc(Cl)c3F)CC2)n1
[3] Cl.O=C(O)[C@]1(Cc2cccc(Nc3nccs3)n2)CC[C@@H](Oc2cccc(C(F)(F)F)c2F)CC1 [Example 4, hydrochloride]
Asked: Order the records so the highest pIC50 appears first and the lowest last. # answer = labels listed in requested order
Given back: 3, 2, 1

[P] O=C(O)[C@]1(Cc2cccc(Nc3nccs3)n2)CC[C@@H](Oc2cccc(Cl)c2)CC1 [Example 5, hydrochloride]
[Q] Cc1nnc([C@]2(Cc3cccc(Nc4cc[nH]n4)n3)CC[C@@H](Oc3cccc(Cl)c3F)CC2)o1
Asked: Response body: label of entry with the larger pIC50; valid values P , Q . State the label of the item chosen.
Given back: P
(P: 6.89, Q: 6.16)

[1] O=C(O)[C@]1(Cc2cccc(Nc3nccs3)n2)CC[C@@H](Oc2cccc(C(F)(F)F)c2)CC1 [Example 7, hydrochloride]
[2] O=C(O)[C@]1(Cc2cccc(Nc3nccs3)n2)CC[C@@H](Sc2cccc(Cl)c2Cl)CC1
Asked: Response body: label of entry with the larger pIC50; valid values 1 , 2 . State the label of the item chosen.
Given back: 2

====

# Study System: GST-tagged human Aurora B(AurB)/His-tagged human INCENP complex proteins (Homo sapiens, UniProt Q96GD4)
# Construct: GST
# Sequence (Q96GD4 whole entry): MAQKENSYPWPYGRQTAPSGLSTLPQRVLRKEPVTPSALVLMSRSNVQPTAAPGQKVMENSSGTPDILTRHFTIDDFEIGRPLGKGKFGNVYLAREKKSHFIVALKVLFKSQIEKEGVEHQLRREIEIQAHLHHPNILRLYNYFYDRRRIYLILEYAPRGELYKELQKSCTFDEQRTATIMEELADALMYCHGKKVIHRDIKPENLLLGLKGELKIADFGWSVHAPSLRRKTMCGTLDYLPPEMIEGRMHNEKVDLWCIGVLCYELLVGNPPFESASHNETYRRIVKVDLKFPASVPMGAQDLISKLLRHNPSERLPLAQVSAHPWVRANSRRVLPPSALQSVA
# Sequence (Q9NQS7 803-916 partner limits assumed): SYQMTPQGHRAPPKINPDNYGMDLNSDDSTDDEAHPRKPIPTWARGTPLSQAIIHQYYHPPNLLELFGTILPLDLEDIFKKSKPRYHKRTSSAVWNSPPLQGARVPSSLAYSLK
# Protocol Text: Aurora B inhibitory activity (Method A, IMAP assay kit)
# Condition Info: 40 μM ATP, 25° C., 45 minutes
Structures can show the parent of a compound that is named as a salt.
Assay Readout: IC50 (nM)

| Compound | IC50, nM |
| --- | --- |
| O=c1[nH]nc([C@]2(Cc3cccc(Nc4cc[nH]n4)n3)CC[C@@H]([S+]([O-])c3cccc(Cl)c3Cl)CC2)o1 (stereo partly shown) | 120 |
| O=C(O)[C@]1(Cc2cccc(Nc3cc[nH]n3)n2)CC[C@@H](Oc2cccc(C(F)(F)F)c2F)CC1 | 190 |
| NC(=O)[C@]1(Cc2cccc(Nc3cc[nH]n3)n2)CC[C@@H](Oc2cccc(Cl)c2F)CC1 | 750 |

[A] Fc1c(O[C@H]2CC[C@](Cc3cccc(Nc4cc[nH]n4)n3)(c3n[nH]c(=S)o3)CC2)cccc1C(F)(F)F
[B] O=C(O)[C@]1(Cc2cc(Br)cc(Nc3nccs3)n2)CC[C@@H](Oc2cccc(Cl)c2F)CC1 [Example 40, hydrochloride]
Asked: Response body: label of entry with the larger IC50; valid values A , B . State the label of the item chosen.
Given back: A

====

# Study System: human Aurora A (Homo sapiens)
# Construct: His (N); made in house; host or cells: Escherichia coli BL21-CodonPlus(DE3)-RIL
# Sequence (O14965 1-403): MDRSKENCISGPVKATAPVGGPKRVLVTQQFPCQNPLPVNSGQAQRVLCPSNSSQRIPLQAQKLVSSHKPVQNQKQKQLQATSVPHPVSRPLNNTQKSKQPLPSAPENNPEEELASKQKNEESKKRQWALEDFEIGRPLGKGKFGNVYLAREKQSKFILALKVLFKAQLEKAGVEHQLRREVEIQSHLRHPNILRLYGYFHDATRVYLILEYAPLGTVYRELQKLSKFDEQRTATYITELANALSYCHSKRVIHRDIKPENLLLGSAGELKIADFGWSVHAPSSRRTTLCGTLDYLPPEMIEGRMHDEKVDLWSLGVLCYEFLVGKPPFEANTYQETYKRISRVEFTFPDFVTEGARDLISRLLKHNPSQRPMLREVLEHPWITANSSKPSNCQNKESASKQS
# Protocol Text: Aurora A inhibitory activity (IMAP fluorescence polarization phosphorylation assay)
# Format: biochemical
# Condition Info: 20 μM ATP, 30° C., 120 minutes
Assay Readout: IC50 (nM)

# annotated cases, reported IC50 shown
| Compound | IC50, nM |
| --- | --- |
| CONC(=O)[C@]1(Cc2cccc(Nc3nccs3)n2)CC[C@@H](Oc2cccc(Cl)c2F)CC1 [Example 18] | 0.49 |
| Fc1c(O[C@H]2CC[C@](Cc3cccc(Nc4cc[nH]n4)n3)(c3nnco3)CC2)cccc1C(F)(F)F [Example 22] | 4.1 |
| Cc1nnc([C@]2(Cc3cccc(Nc4cc[nH]n4)n3)CC[C@@H](Oc3cccc(Cl)c3F)CC2)o1 [Example 25] | 0.87 |

[a] Cl.O=C(O)[C@]1(Cc2cccc(Nc3nccs3)n2)CC[C@@H](Oc2cccc(F)c2F)CC1 [Example 3, hydrochloride]
[b] O=c1[nH]nc([C@]2(Cc3cccc(Nc4cc[nH]n4)n3)CC[C@@H](Oc3cccc(C(F)(F)F)c3F)CC2)o1 [Example 20]
[c] N=c1[nH]nc([C@]2(Cc3cccc(Nc4cc[nH]n4)n3)CC[C@@H](Oc3cccc(C(F)(F)F)c3F)CC2)o1 [Example 21]
Asked: # rank by IC50, ascending (min first) # answer = labels listed in requested order
Given back: a, b, c
